B1: MATN2 (parent)
chain: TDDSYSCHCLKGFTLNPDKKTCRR

variants of: B1; assay: protein stability index of a GFP-peptide fusion (GPS, HEK-293T) (PSI 1-6); higher = more stable; conditions: c terminus: a fixed tail appended;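 further: lentivirally expressed fusions sorted by FACS into six bins by GFP to DsRed ratio, PSI derived from sequencing read proportions per bin multiplied by bin number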
Outcome measure: protein stability index
Just the number, please, no unit after it.

query: Which measured protein stability index value corresponds to TDDSYSCHCLKGFTLPPDKKTCRR ?
result: 2.85

query: Which measured protein stability index value corresponds to TDWSYSCHCLKGFTLNPDKKTCRR ?
result: 1.41

query: Which measured protein stability index value corresponds to TDDSYSCHCLKGFTLNPDKCTCRR ?
result: 4.55

query: Which measured protein stability index value corresponds to TDDDYSCHCLKGFTLNPDKKTCRR ?
result: 2

query: Which measured protein stability index value corresponds to TDDSYSCHCCKGFTLNPDKKTCRR ?
result: 3.11

query: Which measured protein stability index value corresponds to TDDSYSCHCLKGFTLNPDLKTCRR ?
result: 2.21

query: Which measured protein stability index value corresponds to TDDPYSCHCLKGFTLNPDKKTCRR ?
result: 2.64

query: Which measured protein stability index value corresponds to TDDSYSCHCLKGFTLNPDKKTCIR ?
result: 2.02

query: Which measured protein stability index value corresponds to TDDSYSCHCLKGFTLNDDKKTCRR ?
result: 2.65

query: Which measured protein stability index value corresponds to TDDSYSCHCLKGFTLNPDKKTLRR ?
result: 2.93

query: Which measured protein stability index value corresponds to TWDSYSCHCLKGFTLNPDKKTCRR ?
result: 2.24

query: Which measured protein stability index value corresponds to TDDSYSCHCLKGFTLNPDKKTCNR ?
result: 2.71

query: Which measured protein stability index value corresponds to TDDSYSCHCLKGFTLNPDKKVCRR ?
result: 2.41

query: Which measured protein stability index value corresponds to TDDSYSCRCLKGFTLNPDKKTCRR ?
result: 2.51

query: Which measured protein stability index value corresponds to TKDSYSCHCLKGFTLNPDKKTCRR ?
result: 2.85

query: Which measured protein stability index value corresponds to TDDSYSCHCLKGFTWNPDKKTCRR ?
result: 2.48

query: Which measured protein stability index value corresponds to TDDSYSCHCLKGFTLNPGKKTCRR ?
result: 2.36

query: Which measured protein stability index value corresponds to TDDSYSCHCLKGFTLNPDKKTCTR ?
result: 2.52

query: Which measured protein stability index value corresponds to IDDSYSCHCLKGFTLNPDKKTCRR ?
result: 2.1

query: Which measured protein stability index value corresponds to TDDSYSCHCLKGFTLNPDTKTCRR ?
result: 2.06

query: Which measured protein stability index value corresponds to TDDSYSVHCLKGFTLNPDKKTCRR ?
result: 4.28

query: Which measured protein stability index value corresponds to TDDSYSCHCLKGFILNPDKKTCRR ?
result: 2.02

query: Which measured protein stability index value corresponds to TDDSYSCHCLKGFTLNPDKQTCRR ?
result: 2.95

query: Which measured protein stability index value corresponds to TDDSYSCHCLKGFTLNCDKKTCRR ?
result: 3.48

query: Which measured protein stability index value corresponds to TDDSYSCACLKGFTLNPDKKTCRR ?
result: 1.66

query: Which measured protein stability index value corresponds to TDDSYSCHCLKGRTLNPDKKTCRR ?
result: 2.14

query: Which measured protein stability index value corresponds to TDDSYSCHCLKNFTLNPDKKTCRR ?
result: 2.24

query: Which measured protein stability index value corresponds to TDDSYSCHCLKGFMLNPDKKTCRR ?
result: 1.64

query: Which measured protein stability index value corresponds to TDDSYSCHCLKGFGLNPDKKTCRR ?
result: 2.24

query: Which measured protein stability index value corresponds to TDDSYSCHCLKGFTLNPDKKTCRV ?
result: 2.32

query: Which measured protein stability index value corresponds to TDLSYSCHCLKGFTLNPDKKTCRR ?
result: 2.36

query: Which measured protein stability index value corresponds to TDDSMSCHCLKGFTLNPDKKTCRR ?
result: 3.58

query: Which measured protein stability index value corresponds to TDDSYSCHCLKRFTLNPDKKTCRR ?
result: 2.08

query: Which measured protein stability index value corresponds to TFDSYSCHCLKGFTLNPDKKTCRR ?
result: 1.41

query: Which measured protein stability index value corresponds to TDDSYSCHCLKGFALNPDKKTCRR ?
result: 2.69

query: Which measured protein stability index value corresponds to TDDSYSCHCLKGFTLNPHKKTCRR ?
result: 2.83

query: Which measured protein stability index value corresponds to TDDFYSCHCLKGFTLNPDKKTCRR ?
result: 1.83

query: Which measured protein stability index value corresponds to TDDSYSCHCLKGFTLNPDKKSCRR ?
result: 2.36

query: Which measured protein stability index value corresponds to TDDSYSCHCLKGFTLTPDKKTCRR ?
result: 1.91

query: Which measured protein stability index value corresponds to TDDSYSCHCLKGFTLNPDKKHCRR ?
result: 2.62

query: Which measured protein stability index value corresponds to TDDSYSCHCLKGFCLNPDKKTCRR ?
result: 2.31
